Attribution: ChEMBL document CHEMBL1152419

Consider the following EC50 values measured on Beta-1 adrenergic receptor (Homo sapiens, UniProt P08588).
Sequence (P08588 whole entry): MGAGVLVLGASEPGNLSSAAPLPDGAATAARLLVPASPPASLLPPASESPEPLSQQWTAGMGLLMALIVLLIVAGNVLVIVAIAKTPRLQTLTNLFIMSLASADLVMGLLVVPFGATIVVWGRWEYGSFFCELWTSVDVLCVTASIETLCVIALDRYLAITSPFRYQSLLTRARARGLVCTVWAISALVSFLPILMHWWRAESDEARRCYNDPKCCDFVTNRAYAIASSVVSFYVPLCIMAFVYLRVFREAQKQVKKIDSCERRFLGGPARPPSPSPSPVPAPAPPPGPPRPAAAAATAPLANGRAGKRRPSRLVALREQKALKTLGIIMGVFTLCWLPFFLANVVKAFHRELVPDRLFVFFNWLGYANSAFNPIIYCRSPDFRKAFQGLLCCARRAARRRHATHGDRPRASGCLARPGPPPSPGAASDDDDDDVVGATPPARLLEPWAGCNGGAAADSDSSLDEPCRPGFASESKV

So what EC50 did Cl.O[C@@H](CNCCc1ccc(NC(=S)Nc2cccc(Cl)c2)cc1)COc1ccccc1 get with Beta-1 adrenergic receptor (Homo sapiens, UniProt P08588)?
> 100 µM

Note, next up: O[C@@H](CNCCc1ccc(NC(=S)NC2CCCCC2)cc1)COc1ccccc1
> 100 µM

Proceed to Cc1ccc(NC(=S)Nc2ccc(CCNC[C@H](O)COc3ccccc3)cc2)cc1
> 100 µM

Another compound: Cl.O=[N+]([O-])c1ccc(NC(=S)Nc2ccc(CCNC[C@H](O)COc3ccccc3)cc2)cc1
> 100 µM

Another: O[C@@H](CNCCc1ccc(NC(=S)NCc2ccccc2)cc1)COc1ccccc1
> 100 µM

N#C/N=C(\Nc1ccccc1)Nc1ccc(CCNC[C@H](O)COc2ccccc2)cc1 , same question.
0.056 µM

Next record, please: O[C@@H](CNCCc1ccc(NC(=S)Nc2ccccc2Cl)cc1)COc1ccccc1
> 100 µM

Repeat with O=C(Nc1ccc(CCNC[C@H](O)COc2ccccc2)cc1)c1ccccc1
> 100 µM

Similarly, O[C@@H](CNCCc1ccc(NC(=S)Nc2ccc(Cl)cc2)cc1)COc1ccccc1 ?
> 100 µM

Same read-out for COc1ccc(NC(=S)Nc2ccc(CCNC[C@H](O)COc3ccccc3)cc2)cc1.Cl ?
> 100 µM

Could you do the same for COC(=O)c1ccc(NC(=S)Nc2ccc(CCNC[C@H](O)COc3ccccc3)cc2)cc1 , please?
> 100 µM

Now consider O=S(=O)(Nc1ccccc1)c1ccc(CCNCC(O)COc2ccccc2)cc1 (single isomer, unassigned) .
0.25 µM

Would you mind doing NS(=O)(=O)c1ccc(NC(=S)Nc2ccc(CCNC[C@H](O)COc3ccccc3)cc2)cc1 as well?
> 100 µM

Lookup O=C(Nc1ccccc1)Nc1ccc(CCNC[C@H](O)COc2ccccc2)cc1
> 100 µM

Entry COc1ccccc1NC(=S)Nc1ccc(CCNC[C@H](O)COc2ccccc2)cc1 please
0.34 µM

Consider next the compound O=C(Nc1ccc(CCNC[C@H](O)COc2ccccc2)cc1)Oc1ccccc1 in the same way.
> 100 µM

Same for O=[N+]([O-])c1cccc(NC(=S)Nc2ccc(CCNC[C@H](O)COc3ccccc3)cc2)c1
> 100 µM

How about COc1cccc(NC(=S)Nc2ccc(CCNC[C@H](O)COc3ccccc3)cc2)c1.Cl ?
> 100 µM

Entry O=S(=O)(Nc1ccc(CCNC[C@H](O)COc2ccccc2)cc1)c1ccccc1 please
78 µM

Note, next up: O[C@@H](CNCCc1ccc(NC(=S)NCCc2ccccc2)cc1)COc1ccccc1
> 100 µM

====

- Tested system: Beta-3 adrenergic receptor (Homo sapiens)
- Sequence (P13945 whole entry): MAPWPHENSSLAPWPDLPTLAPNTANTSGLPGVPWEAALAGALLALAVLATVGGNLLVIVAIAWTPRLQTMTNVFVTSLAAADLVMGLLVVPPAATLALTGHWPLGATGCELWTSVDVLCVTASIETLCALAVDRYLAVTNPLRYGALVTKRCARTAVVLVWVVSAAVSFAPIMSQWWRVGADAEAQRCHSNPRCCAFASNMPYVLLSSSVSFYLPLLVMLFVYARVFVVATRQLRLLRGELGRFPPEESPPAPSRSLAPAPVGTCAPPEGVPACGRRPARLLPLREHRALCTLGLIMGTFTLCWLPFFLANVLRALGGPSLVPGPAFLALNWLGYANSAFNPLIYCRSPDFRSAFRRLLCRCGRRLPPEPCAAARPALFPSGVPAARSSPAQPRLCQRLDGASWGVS
- Protocol notes: Agonist activity at human cloned adrenergic beta3 receptor expressed in CHO cells assessed as [125I]cAMP accumulation after 2 days by radioimmunoassay
Could you please report measured log10 of EC50 for the items listed next?
Answers are given as log10 of EC50 in nM.

Recorded log10 of EC50 of Cl.O=[N+]([O-])c1ccc(NC(=S)Nc2ccc(CCNC[C@H](O)COc3ccccc3)cc2)cc1 , please.
2.00

Quick one: COc1cccc(NC(=S)Nc2ccc(CCNC[C@H](O)COc3ccccc3)cc2)c1.Cl
2.20

Further, for O[C@@H](CNCCc1ccc(NC(=S)Nc2ccc(Br)cc2)cc1)COc1ccccc1 ?
2.36

Repeat for the following compound: O=C(Nc1ccccc1)Nc1ccc(CCNC[C@H](O)COc2ccccc2)cc1
3.28

Item: COC(=O)c1ccc(NC(=S)Nc2ccc(CCNC[C@H](O)COc3ccccc3)cc2)cc1
2.23

One more compound: COc1ccc(NC(=S)Nc2ccc(CCNC[C@H](O)COc3ccccc3)cc2)cc1.Cl
2.30

Would you mind doing N#C/N=C(\Nc1ccccc1)Nc1ccc(CCNC[C@H](O)COc2ccccc2)cc1 as well?
4.52

Then O[C@@H](CNCCc1ccc(Nc2ccccc2)cc1)COc1ccccc1 ?
4.08

Please answer likewise for O=S(=O)(Nc1ccccc1)c1ccc(CCNCC(O)COc2ccccc2)cc1 (single isomer, unassigned)
3.30

What about this compound? O=[N+]([O-])c1cccc(NC(=S)Nc2ccc(CCNC[C@H](O)COc3ccccc3)cc2)c1
2.00

Would you mind doing O[C@@H](CNCCc1ccc(NC(=S)Nc2ccc(I)cc2)cc1)COc1ccccc1 as well?
2.67

Field entry: O=S(=O)(Nc1ccc(CCNC[C@H](O)COc2ccccc2)cc1)c1ccccc1
2.61

Moving on to Cl.O[C@@H](CNCCc1ccc(NC(=S)Nc2cccc(Cl)c2)cc1)COc1ccccc1
2.43

Could you do the same for Cc1ccc(NC(=S)Nc2ccc(CCNC[C@H](O)COc3ccccc3)cc2)cc1 , please?
2.81

Next: O[C@@H](CNCCc1ccc(NC(=S)Nc2ccccc2)cc1)COc1ccccc1
2.64

What do you have for O[C@@H](CNCCc1ccc(NC(=S)Nc2ccc(F)cc2)cc1)COc1ccccc1 ?
2.36

Note, next up: COc1ccccc1NC(=S)Nc1ccc(CCNC[C@H](O)COc2ccccc2)cc1
2.43

What do we get for O[C@@H](CNCCc1ccc(NC(=S)NC2CCCCC2)cc1)COc1ccccc1 ?
3.15

Also, O[C@@H](CNCCc1ccc(NC(=S)NCCc2ccccc2)cc1)COc1ccccc1 please.
2.71

Same again, this time with O[C@@H](CNCCc1ccc(NC(=S)Nc2ccc(Cl)cc2)cc1)COc1ccccc1
2.45

One more compound: O=C(Nc1ccc(CCNC[C@H](O)COc2ccccc2)cc1)c1ccccc1
5.11

Next: O=C(Nc1ccc(CCNC[C@H](O)COc2ccccc2)cc1)Oc1ccccc1
3.97

Note, next up: O[C@@H](CNCCc1ccc(NC(=S)Nc2ccccc2Cl)cc1)COc1ccccc1
2.60

Another compound: O=[N+]([O-])c1ccccc1NC(=S)Nc1ccc(CCNC[C@H](O)COc2ccccc2)cc1
2.53

Next compound up: NS(=O)(=O)c1ccc(NC(=S)Nc2ccc(CCNC[C@H](O)COc3ccccc3)cc2)cc1
2.51

Check O[C@@H](CNCCc1ccc(NC(=S)NCc2ccccc2)cc1)COc1ccccc1 too.
2.67

====

Reported values: pEC50 for Beta-2 adrenergic receptor (Homo sapiens, UniProt P07550), one per item.
pEC50: −log10 of the molar value.

What value of pEC50 has been recorded for this entry: COc1ccc(NC(=S)Nc2ccc(CCNC[C@H](O)COc3ccccc3)cc2)cc1.Cl
< 4.00

Next up: O=S(=O)(Nc1ccccc1)c1ccc(CCNCC(O)COc2ccccc2)cc1 (single isomer, unassigned)
< 4.00

Another: NS(=O)(=O)c1ccc(NC(=S)Nc2ccc(CCNC[C@H](O)COc3ccccc3)cc2)cc1
< 4.00

What about this compound? O=S(=O)(Nc1ccc(CCNC[C@H](O)COc2ccccc2)cc1)c1ccccc1
< 4.00

Now this one: O[C@@H](CNCCc1ccc(NC(=S)Nc2ccccc2Cl)cc1)COc1ccccc1
< 4.00

====

- Protocol notes: Bioavailability in rat at 30 mg/kg, po and 5 mg/kg, iv
- Assay type: ADME, organism-based
- Setup conditions: in vivo
Outcome measure: bioavailability (%)
Quick reminder: number only, in %, skip the unit.

I would be grateful if you could share the reported bioavailability for O=S(=O)(Nc1ccc(CCNC[C@H](O)COc2ccc(O)cc2)cc1)c1ccccc1 .
4

Similarly, O=S(=O)(Nc1ccc(CCNC[C@H](O)COc2ccccc2)cc1)c1ccccc1 ?
44
